Test system: HEK-293T
assayProcedure: Multiplex assay against HEK293T
Type: toxicity, cell-based
measurementContext: human, 12 h, 10 µM, compound concentration 10 uM, replicate 2
# reported Population Fragmented Nuclei (%); entries follow
measurementKind: Population Fragmented Nuclei (%)

molecule=CCn1c(=O)c(-c2ccc(-c3cncs3)cc2Cl)cc2cnc(Nc3ccc(N4CCN(C)CC4)cc3)nc21 targetortestsystem=HEK-293T valueunits=% reading=7
molecule=Cc1cc(C)c(S(=O)(=O)N(Cc2ccc(-c3cccc(S(C)(=O)=O)c3)cc2)Cc2ccc(C(F)(F)F)o2)c(C)c1 targetortestsystem=HEK-293T valueunits=% reading=9
molecule="CN1CCC(=C2c3ccccc3CC(=O)c3sccc32)CC1.O=C(O)/C=C/C(=O)O [KETOTIFEN FUMARATE]" targetortestsystem=HEK-293T valueunits=% reading=7
molecule=COc1cc(N2CCN(C)CC2)ccc1Nc1ncc2c(n1)N(C)c1ccccc1C(=O)N2C targetortestsystem=HEK-293T valueunits=% reading=8
molecule="Cc1cn(-c2cc(NC(=O)c3ccc(C)c(Nc4nccc(-c5cccnc5)n4)c3)cc(C(F)(F)F)c2)cn1 [NILOTINIB]" targetortestsystem=HEK-293T valueunits=% reading=9
molecule=O=C(Nc1cccnn1)N1CCC(=Cc2cccc(Oc3ccc(C(F)(F)F)cn3)c2)CC1 targetortestsystem=HEK-293T valueunits=% reading=7
molecule=CNC(=O)c1ccc(Nc2nc(OC3CCCC3)c3c(-c4ccc5nc(C)oc5c4)c[nH]c3n2)c(OC)c1 targetortestsystem=HEK-293T valueunits=% reading=3
molecule="CN1CCN(C(=O)C(C)(C)c2ccc(C(=O)Nc3cn4cc(-c5cc(C(C)(C)C)cc(C(C)(C)C)c5)ccc4n3)cc2)CC1 [T3-CLK-N]" targetortestsystem=HEK-293T valueunits=% reading=3
